Biological target: UniProtKB P42866
Sequence (P42866 whole entry): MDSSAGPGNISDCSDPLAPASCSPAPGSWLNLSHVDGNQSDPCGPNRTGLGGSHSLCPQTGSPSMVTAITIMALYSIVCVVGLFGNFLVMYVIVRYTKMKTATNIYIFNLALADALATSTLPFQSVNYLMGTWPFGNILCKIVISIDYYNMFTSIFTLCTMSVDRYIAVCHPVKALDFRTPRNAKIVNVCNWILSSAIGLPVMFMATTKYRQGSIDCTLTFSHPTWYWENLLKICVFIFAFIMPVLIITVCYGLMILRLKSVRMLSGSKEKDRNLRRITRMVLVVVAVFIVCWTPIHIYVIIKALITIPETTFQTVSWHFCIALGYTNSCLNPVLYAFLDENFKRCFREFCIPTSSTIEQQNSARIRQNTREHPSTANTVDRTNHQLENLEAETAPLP
Assay: Equilibrium constant, ratio of IC50 for mu opioid receptor in ddy mouse vas deferens in presence of 30 nM naloxone to IC50 for mu opioid receptor in ddy mouse vas deferens
Measured Quantity: log10 Ke (log10 of the value in nM)
Values are log10 of Ke in nM.

Which log10 Ke is reported with UniProtKB P42866 for this entry: CCCCCCN[C@@H]1CC[C@@]2(O)[C@H]3Cc4ccc(O)c5c4[C@@]2(CCN3CC2CC2)[C@H]1O5 ?
1.15

Record: CCCCCC(=O)N[C@@H]1CC[C@@]2(O)[C@H]3Cc4ccc(O)c5c4[C@@]2(CCN3CC2CC2)[C@H]1O5
0.64

Record: COc1cccc(/C=C/C(=O)N(C)[C@@H]2CC[C@@]3(O)[C@H]4Cc5ccc(O)c6c5[C@@]3(CCN4CC3CC3)[C@H]2O6)c1
1.78

Record: CN(C(=O)/C=C/c1ccc(C(F)(F)F)cc1)[C@@H]1CC[C@@]2(O)[C@H]3Cc4ccc(O)c5c4[C@@]2(CCN3CC2CC2)[C@H]1O5
2.72

Record: CN(C(=O)Cc1ccc(Cl)c(Cl)c1)[C@@H]1CC[C@@]2(O)[C@H]3Cc4ccc(O)c5c4[C@@]2(CCN3CC2CC2)[C@H]1O5
4.23

Record: CCC/C=C/C(=O)N(C)[C@@H]1CC[C@@]2(O)[C@H]3Cc4ccc(O)c5c4[C@@]2(CCN3CC2CC2)[C@H]1O5
3.26

Record: CN(C(=O)/C=C/C1CCCCC1)[C@@H]1CC[C@@]2(O)[C@H]3Cc4ccc(O)c5c4[C@@]2(CCN3CC2CC2)[C@H]1O5
3.76

Record: CCCCCCO[C@@H]1CC[C@@]2(O)[C@H]3Cc4ccc(O)c5c4[C@@]2(CCN3CC2CC2)[C@H]1O5
0.65

Record: CN(C(=O)/C=C/c1ccccc1)[C@H]1CC[C@@]2(O)[C@H]3Cc4ccc(O)c5c4[C@@]2(CCN3CC2CC2)[C@H]1O5
4.15

Record: CN(C(=O)/C=C/c1ccoc1)[C@@H]1CC[C@H]2[C@H]3Cc4ccc(O)c5c4[C@@]2(CCN3CC2CC2)[C@H]1O5
0.91

Record: CN(C(=O)/C=C/c1cccc([N+](=O)[O-])c1)[C@@H]1CC[C@@]2(O)[C@H]3Cc4ccc(O)c5c4[C@@]2(CCN3CC2CC2)[C@H]1O5
2.27

Record: Cc1cccc(/C=C/C(=O)N(C)[C@@H]2CC[C@@]3(O)[C@H]4Cc5ccc(O)c6c5[C@@]3(CCN4CC3CC3)[C@H]2O6)c1
3.25

Record: CN(C(=O)/C=C/c1ccoc1)[C@@H]1CC[C@@]2(O)[C@H]3Cc4cccc5c4[C@@]2(CCN3CC2CC2)[C@H]1O5
1.08

Record: CN(C(=O)Cc1ccc(Cl)c(Cl)c1)[C@H]1CC[C@@]2(O)[C@H]3Cc4ccc(O)c5c4[C@@]2(CCN3CC2CC2)[C@H]1O5
1.72

Record: CN1CC[C@]23c4c5ccc(O)c4O[C@H]2[C@H](N(C)C(=O)/C=C/c2ccoc2)CC[C@@]3(O)[C@H]1C5
0.91

Record: CN(C(=O)/C=C/c1ccccc1)[C@@H]1CC[C@@]2(O)[C@H]3Cc4ccc(O)c5c4[C@@]2(CCN3CC2CC2)[C@H]1O5
2.96

###

System: Mus musculus
Experiment: Antinociceptive activity in sc dosed mouse assessed as inhibition of acetic acid-induced writhing administered 15 mins before acetic acid challenge
Format: functional
Record form. Attribute: log10 of ED50. Fill in for each entry.
Values are log10 of ED50 in mg/kg.

Which log10 of ED50 is reported with Mus musculus for this entry: CN(C(=O)/C=C/c1ccoc1)[C@@H]1CC[C@@]2(O)[C@H]3Cc4ccc(O)c5c4[C@@]2(CCN3CCc2ccccc2)[C@H]1O5 ?
0.01

Record: COc1cccc(/C=C/C(=O)N(C)[C@@H]2CC[C@@]3(O)[C@H]4Cc5ccc(O)c6c5[C@@]3(CCN4CC3CC3)[C@H]2O6)c1
-2.96

Record: CN(C(=O)/C=C/c1ccoc1)[C@@H]1CC[C@H]2[C@H]3Cc4ccc(O)c5c4[C@@]2(CCN3CC2CC2)[C@H]1O5
-1.70

Record: CCCCCCS[C@@H]1CC[C@@]2(O)[C@H]3Cc4ccc(O)c5c4[C@@]2(CCN3CC2CC2)[C@H]1O5
1.20

Record: CN1CC[C@]23c4c5ccc(O)c4O[C@H]2[C@H](N(C)C(=O)/C=C/c2ccoc2)CC[C@@]3(O)[C@H]1C5
0.01

Record: CN(C(=O)/C=C/C1CCCCC1)[C@@H]1CC[C@@]2(O)[C@H]3Cc4ccc(O)c5c4[C@@]2(CCN3CC2CC2)[C@H]1O5
-2.40

Record: CN(C(=O)c1ccc2ccccc2c1)[C@@H]1CC[C@@]2(O)[C@H]3Cc4ccc(O)c5c4[C@@]2(CCN3CC2CC2)[C@H]1O5
0.56

Record: CN(C(=O)/C=C/c1ccccc1)[C@@H]1CC[C@@]2(O)[C@H]3Cc4ccc(O)c5c4[C@@]2(CCN3CC2CC2)[C@H]1O5
-2.70

Record: CN(C(=O)/C=C/c1ccccc1)[C@H]1CC[C@@]2(O)[C@H]3Cc4ccc(O)c5c4[C@@]2(CCN3CC2CC2)[C@H]1O5
-2.48

Record: CN(C(=O)/C=C/c1cccs1)[C@@H]1CC[C@@]2(O)[C@H]3Cc4ccc(O)c5c4[C@@]2(CCN3CC2CC2)[C@H]1O5
-2.57

Record: CCCCCCO[C@@H]1CC[C@@]2(O)[C@H]3Cc4ccc(O)c5c4[C@@]2(CCN3CC2CC2)[C@H]1O5
0.25

Record: CN(C(=O)/C=C/c1ccoc1)[C@@H]1CC[C@@]2(O)[C@H]3Cc4ccc(O)c5c4[C@@]2(CCN3)[C@H]1O5
0.85

Record: O=C(/C=C/c1ccoc1)N[C@@H]1CC[C@@]2(O)[C@H]3Cc4ccc(O)c5c4[C@@]2(CCN3CC2CC2)[C@H]1O5
-0.02

Record: CN(C(=O)/C=C/c1ccoc1)[C@@H]1CC[C@@]2(O)[C@H]3Cc4ccc(N)c5c4[C@@]2(CCN3CC2CC2)[C@H]1O5
-0.70

###

System: Mus musculus
Assay: Antinociceptive activity in po dosed mouse assessed as inhibition of acetic acid-induced writhing administered 15 mins before acetic acid challenge
Format: functional
Measured Quantity: ED50 (mg/kg)
Please state the figure in mg/kg; there is no need to write the unit.

Which ED50 is reported with Mus musculus for this entry: CN(C(=O)/C=C/C1CCCCC1)[C@@H]1CC[C@@]2(O)[C@H]3Cc4ccc(O)c5c4[C@@]2(CCN3CC2CC2)[C@H]1O5 ?
0.071

Record: Cc1cccc(/C=C/C(=O)N(C)[C@@H]2CC[C@@]3(O)[C@H]4Cc5ccc(O)c6c5[C@@]3(CCN4CC3CC3)[C@H]2O6)c1
0.064

Record: CN(C(=O)/C=C/c1ccoc1)[C@@H]1CC[C@@]2(O)[C@H]3Cc4ccc(O)c5c4[C@@]2(CCN3CC2CC2)[C@H]1O5.Cl [NALFURAFINE HYDROCHLORIDE]
0.032

Record: CCC/C=C/C(=O)N(C)[C@@H]1CC[C@@]2(O)[C@H]3Cc4ccc(O)c5c4[C@@]2(CCN3CC2CC2)[C@H]1O5
0.21

Record: CN(C(=O)Cc1ccc(Cl)c(Cl)c1)[C@@H]1CC[C@@]2(O)[C@H]3Cc4ccc(O)c5c4[C@@]2(CCN3CC2CC2)[C@H]1O5
18

###

Molecular target: Kappa-type opioid receptor (Mus musculus)
Assay: Agonist activity at kappa opioid receptor in ddy mouse vas deferens assessed as inhibition of electric stimulation-induced contraction
Measured Quantity: IC50 (nM)
Please state the figure in nM; there is no need to write the unit.

Form field: reported IC50 of CN(C(=O)/C=C/c1ccsc1)[C@@H]1CC[C@@]2(O)[C@H]3Cc4ccc(O)c5c4[C@@]2(CCN3CC2CC2)[C@H]1O5
0.1

Record: CCC/C=C/C(=O)N(C)[C@@H]1CC[C@@]2(O)[C@H]3Cc4ccc(O)c5c4[C@@]2(CCN3CC2CC2)[C@H]1O5
0.647

Record: O=C(/C=C/c1ccoc1)N[C@@H]1CC[C@@]2(O)[C@H]3Cc4ccc(O)c5c4[C@@]2(CCN3CC2CC2)[C@H]1O5
0.869

Record: CN(C(=O)/C=C/c1ccco1)[C@@H]1CC[C@@]2(O)[C@H]3Cc4ccc(O)c5c4[C@@]2(CCN3CC2CC2)[C@H]1O5
0.55

###

Target: Kappa-type opioid receptor (Mus musculus, UniProt P33534)
Sequence (P33534 whole entry): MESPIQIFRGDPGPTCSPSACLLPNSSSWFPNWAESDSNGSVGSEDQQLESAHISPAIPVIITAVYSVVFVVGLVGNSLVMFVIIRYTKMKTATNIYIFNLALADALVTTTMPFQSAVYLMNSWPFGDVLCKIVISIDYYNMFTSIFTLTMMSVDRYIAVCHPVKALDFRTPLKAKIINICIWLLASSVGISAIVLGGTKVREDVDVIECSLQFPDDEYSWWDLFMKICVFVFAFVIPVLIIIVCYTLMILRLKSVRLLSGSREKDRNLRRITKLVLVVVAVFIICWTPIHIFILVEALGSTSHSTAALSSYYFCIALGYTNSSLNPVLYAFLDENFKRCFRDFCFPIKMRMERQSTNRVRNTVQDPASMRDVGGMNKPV
Experiment: Agonist activity at kappa opioid receptor in ddy mouse vas deferens assessed as inhibition of electric stimulation-induced contraction
Format: functional, tissue-based
Measured Quantity: log10 IC50 (log10 of the value in nM)
Values are log10 of IC50 in nM.

Which log10 IC50 is reported with Kappa-type opioid receptor (Mus musculus, UniProt P33534) for this entry: COc1cccc(/C=C/C(=O)N(C)[C@@H]2CC[C@@]3(O)[C@H]4Cc5ccc(O)c6c5[C@@]3(CCN4CC3CC3)[C@H]2O6)c1 ?
-0.12

Record: CN(C(=O)Cc1ccc(Cl)c(Cl)c1)[C@@H]1CC[C@@]2(O)[C@H]3Cc4ccc(O)c5c4[C@@]2(CCN3CC2CC2)[C@H]1O5
1.23

Record: CN(C(=O)/C=C/c1cccc(F)c1)[C@@H]1CC[C@@]2(O)[C@H]3Cc4ccc(O)c5c4[C@@]2(CCN3CC2CC2)[C@H]1O5
0.20

Record: CCCCCC(=O)N[C@@H]1CC[C@@]2(O)[C@H]3Cc4ccc(O)c5c4[C@@]2(CCN3CC2CC2)[C@H]1O5
1.40

Record: CN(C(=O)/C=C/c1ccoc1)[C@@H]1CC[C@H]2[C@H]3Cc4ccc(O)c5c4[C@@]2(CCN3CC2CC2)[C@H]1O5
-1.46

Record: CN1CC[C@]23c4c5ccc(O)c4O[C@H]2[C@H](N(C)C(=O)/C=C/c2ccoc2)CC[C@@]3(O)[C@H]1C5
1.74

Record: CN(C(=O)/C=C/c1cccs1)[C@@H]1CC[C@@]2(O)[C@H]3Cc4ccc(O)c5c4[C@@]2(CCN3CC2CC2)[C@H]1O5
-1.00

Record: CN(C(=O)/C=C/C1CCCCC1)[C@@H]1CC[C@@]2(O)[C@H]3Cc4ccc(O)c5c4[C@@]2(CCN3CC2CC2)[C@H]1O5
-0.34

Record: CN(C(=O)/C=C/c1ccc(C(F)(F)F)cc1)[C@@H]1CC[C@@]2(O)[C@H]3Cc4ccc(O)c5c4[C@@]2(CCN3CC2CC2)[C@H]1O5
-1.15

Record: CCCCCCO[C@@H]1CC[C@@]2(O)[C@H]3Cc4ccc(O)c5c4[C@@]2(CCN3CC2CC2)[C@H]1O5
1.20

Record: CN(C(=O)CCc1ccccc1)[C@@H]1CC[C@@]2(O)[C@H]3Cc4ccc(O)c5c4[C@@]2(CCN3CC2CC2)[C@H]1O5
-1.72

Record: CN(C(=O)/C=C/c1ccccc1)[C@H]1CC[C@@]2(O)[C@H]3Cc4ccc(O)c5c4[C@@]2(CCN3CC2CC2)[C@H]1O5
-0.38

Record: Cc1cccc(/C=C/C(=O)N(C)[C@@H]2CC[C@@]3(O)[C@H]4Cc5ccc(O)c6c5[C@@]3(CCN4CC3CC3)[C@H]2O6)c1
-0.49
